Reference for the values: patent EP4342530A1

test: Blood-brain-barrier permeability in mice after IV administration; settings: male, CD1 (ICR), mouse, brain/plasma, intravenous, 3 mg/kg
measure: Kp at 0.5 h
Please give the numeric answer without any surrounding text.

Problem: Item under review: CC(C)(C)CC[C@H](NCc1ccc2c(c1)COCC2)C(=O)O . Reported Kp at 0.5 h?
Solution: 0.21

* * *

experiment: Kpuu determination in the dog (plasma and CSF time course after oral capsule); type: in vivo, male beagle dog; conditions: male, beagle, CSF, 20 mg/kg oral capsule, 12 h, read-out: CSF concentration
measure: concentration at 12 h
Just so you know, I need the unit written after the number.

Problem: concentration at 12 h lookup needed for CC(C)(C)CC[C@H](NCc1ccc2c(c1)COCC2)C(=O)O , thanks.
Solution: 196 ng/mL
